System: M. mycetomatis MM55
Test: IC50 determination, 2-fold dilution series 16 to 0.03125 μM
Format: cell-based, Madurella mycetomatis
Conditions: Madurella mycetomatis, MM55, mean of replicates; read-out: IC90 mean
# IC90 values compiled below

{"columns": ["COMPOUND", "BOUND_TYPE", "IC90 [µM]"],
 "data": [
  ["CCC(C)(C)c1ccc(CC(C)CN2C[C@@H](C)O[C@@H](C)C2)cc1 (some centres unmarked) [MMV1634358, Amorolfine, reference compound]", "=", 10.7],
  ["Cc1ccc(S(=O)(=O)Nc2cccc3cccnc23)cc1 [MMV233495]", ">", 25],
  ["CCCCC(CC)CNC(=N)NC(=N)NCCCCCCNC(=N)NC(=N)NCC(CC)CCCC (centres unmarked) [MMV396785, Alexidine, reference compound]", "=", 4.26],
  ["O=[N+]([O-])c1ccc2c(CCc3c[nH]c4ccccc34)c[nH]c2c1 [MMV1593539]", "=", 21.7],
  ["Clc1ccc(Cn2c(CN3CCCC3)nc3ccccc32)cc1 [MMV002015]", ">", 25]
]}
